Reference source: ChEMBL document CHEMBL1629508

Biological target: Autotaxin (Homo sapiens, UniProt Q13822)
Test: Inhibition of autotoxin assessed as choline release from LPC using lysophosphatidylcholine as substrate
experimental.readout: Ki
Please state the number and follow it with the unit.

### Prompt # Ki lookup, item "O=C(O)c1cccc(/C=C2\SC(=O)N(Cc3ccc(F)cc3)C2=O)c1"
### Response 187 nM

### Prompt Also need CCCCCCCCCCCCCCCCCC(=O)OC[C@@H](O)CC(Br)P(=O)(O)O (some centres undefined) , thanks.
### Response 40100 nM

### Prompt Also need "CCCCCCCCCCCCCC(=O)Nc1ccc(CP(=O)(O)O)cc1" , thanks.
### Response 367 nM

### Prompt Also need "O=C1S/C(=C\c2cccc(B(O)O)c2)C(=O)N1Cc1ccc(F)cc1" , thanks.
### Response 94 nM

----------
Target: Autotaxin (Homo sapiens, UniProt Q13822)
Assay: Inhibition of autotoxin assessed as choline production after 60 to 180 mins using lysophosphatidylcholine as a substrate by colorimetric method
Exercise: for every item that follows, state its recorded Ki.
Numeric only. Scale: µM

### Prompt # Ki lookup, item "CCCCCCCCCCCCCCCC(=O)N[C@@H](Cc1ccc(OCc2ncc(C)c(OCC)c2C)cc1)[C@@H](O)CP(=O)(O)O"
### Response 4.7

### Prompt Also need "CCCCCCCCCCCCCCCC(=O)N[C@@H](Cc1ccc(OCc2ccc(Cl)cc2Cl)cc1)[C@@H](O)CP(=O)(O)O" , thanks.
### Response 584

### Prompt Also need "CCCCCCCCCCCCCCCC(=O)N[C@@H](Cc1ccc(OCc2ccccn2)cc1)[C@H](O)CP(=O)(O)O" , thanks.
### Response 11

### Prompt Also need "CCCCCCCCCCCCCCCC(=O)N[C@@H](Cc1ccc(OCc2cc(OC)ccn2)cc1)[C@@H](O)CP(=O)(O)O" , thanks.
### Response 1.5

### Prompt Also need "CCCCCCCCCCCCCCCC(=O)N[C@@H](Cc1ccc(OCc2ccc(OC)c(C)c2)cc1)[C@@H](O)CP(=O)(O)O" , thanks.
### Response 4.3

### Prompt Also need "CCCCCCCCCCCCCCCC(=O)N[C@@H](Cc1ccc(OCc2cc(C)c(OC)c(C)c2)cc1)[C@@H](O)CP(=O)(O)O" , thanks.
### Response 1.6

### Prompt Also need "CCCCCCCCCCCCCCCC(=O)N[C@@H](Cc1ccc(OCc2ccc(C)cc2C)cc1)[C@H](O)CP(=O)(O)O" , thanks.
### Response 4.8

### Prompt Also need "CCCCCCCCCCCCCCCC(=O)N[C@@H](Cc1ccc(OCc2ncc(C)c(OC(C)C)c2C)cc1)[C@@H](O)CP(=O)(O)O" , thanks.
### Response 8.8

### Prompt Also need "CCCCCCCCCCCCCCCC(=O)N[C@@H](Cc1ccc(OCc2ccc(OC)c(C)c2)cc1)[C@H](O)CP(=O)(O)O" , thanks.
### Response 26.5

### Prompt Also need "CCCCCCCCCCCCCCCC(=O)N[C@@H](Cc1ccc(OCc2ccc(Cl)cc2Cl)cc1)[C@H](O)CP(=O)(O)O" , thanks.
### Response 1060

### Prompt Also need "CCCCCCCCCCCCCCCC(=O)N[C@@H](Cc1ccc(OCc2cc(C)cc(C)c2)cc1)[C@H](O)CP(=O)(O)O" , thanks.
### Response 217

### Prompt Also need "CCCCCCCCCCCCCCCC(=O)N[C@@H](Cc1ccc(OCc2ncc(C)c(OC)c2C)cc1)[C@H](O)CP(=O)(O)O" , thanks.
### Response 3.9

### Prompt Also need "CCCCCCCCCCCCCCCC(=O)N[C@@H](Cc1ccc(OCc2ncc(C)c(OC)c2C)cc1)[C@@H](O)CP(=O)(O)O" , thanks.
### Response 1

### Prompt Also need "CCCCCCCCCCCCCCCC(=O)N[C@@H](Cc1ccc(OCc2cc(C)c(OC)c(C)c2)cc1)[C@H](O)CP(=O)(O)O" , thanks.
### Response 5.3

### Prompt Also need "CCCCCCCCCCCCCCCC(=O)N[C@@H](Cc1ccc(OCc2ncc(C)cc2C)cc1)[C@@H](O)CP(=O)(O)O" , thanks.
### Response 3.9

### Prompt Also need "CCCCCCCCCCCCCCCC(=O)N[C@@H](Cc1ccc(OCc2ncc(C)cc2C)cc1)[C@H](O)CP(=O)(O)O" , thanks.
### Response 399

### Prompt Also need "CCCCCCCCCCCCCCCC(=O)N[C@@H](Cc1ccc(OCc2cc(C)cc(C)c2)cc1)[C@@H](O)CP(=O)(O)O" , thanks.
### Response 88.9

### Prompt Also need "CCCCCCCCCCCCCCCC(=O)N[C@@H](Cc1ccc(OCc2ccc(C)cc2C)cc1)[C@@H](O)CP(=O)(O)O" , thanks.
### Response 1.8

### Prompt Also need "CCCCCCCCCCCCCCCC(=O)N[C@@H](Cc1ccc(OCc2ccccc2)cc1)[C@H](O)CP(=O)(O)O" , thanks.
### Response 83

### Prompt Also need "CCCCCCCCCCCCCCCC(=O)N[C@@H](Cc1ccc(OCc2cc(OCC(F)(F)F)ccn2)cc1)[C@H](O)CP(=O)(O)O" , thanks.
### Response 22.5

### Prompt Also need "CCCCCCCCCCCCCCCC(=O)N[C@@H](Cc1ccc(OCc2cc(OC)ccn2)cc1)[C@H](O)CP(=O)(O)O" , thanks.
### Response 3.5

### Prompt Also need "CCCCCCCCCCCCCCCC(=O)N[C@@H](Cc1ccc(OCc2cc(OCC(F)(F)F)ccn2)cc1)[C@@H](O)CP(=O)(O)O" , thanks.
### Response 11.6

### Prompt Also need "CCCCCCCCCCCCCCCC(=O)N[C@@H](Cc1ccc(OCc2ncc(C)c(OCC)c2C)cc1)[C@H](O)CP(=O)(O)O" , thanks.
### Response 6.2

### Prompt Also need "CCCCCCCCCCCCCCCC(=O)N[C@@H](Cc1ccc(OCc2ncc(C)c(OC(C)C)c2C)cc1)[C@H](O)CP(=O)(O)O" , thanks.
### Response 11.1

### Prompt Also need "CCCCCCCCCCCCCCCC(=O)N[C@@H](Cc1ccc(OCc2ccccc2)cc1)[C@@H](O)CP(=O)(O)O" , thanks.
### Response 27

### Prompt Also need "CCCCCCCCCCCCCCCC(=O)N[C@@H](Cc1ccc(OCc2ccccn2)cc1)[C@@H](O)CP(=O)(O)O" , thanks.
### Response 4.4
